biological target: recombinant mouse sEH (MsEH) (Mus musculus); test: Inhibition of recombinant mouse sEH (MsEH); assay type: biochemical; settings: Table 2; MsEH 0.13 μM; read-out: Mouse sEH IC50
Sequence (P34914 whole entry): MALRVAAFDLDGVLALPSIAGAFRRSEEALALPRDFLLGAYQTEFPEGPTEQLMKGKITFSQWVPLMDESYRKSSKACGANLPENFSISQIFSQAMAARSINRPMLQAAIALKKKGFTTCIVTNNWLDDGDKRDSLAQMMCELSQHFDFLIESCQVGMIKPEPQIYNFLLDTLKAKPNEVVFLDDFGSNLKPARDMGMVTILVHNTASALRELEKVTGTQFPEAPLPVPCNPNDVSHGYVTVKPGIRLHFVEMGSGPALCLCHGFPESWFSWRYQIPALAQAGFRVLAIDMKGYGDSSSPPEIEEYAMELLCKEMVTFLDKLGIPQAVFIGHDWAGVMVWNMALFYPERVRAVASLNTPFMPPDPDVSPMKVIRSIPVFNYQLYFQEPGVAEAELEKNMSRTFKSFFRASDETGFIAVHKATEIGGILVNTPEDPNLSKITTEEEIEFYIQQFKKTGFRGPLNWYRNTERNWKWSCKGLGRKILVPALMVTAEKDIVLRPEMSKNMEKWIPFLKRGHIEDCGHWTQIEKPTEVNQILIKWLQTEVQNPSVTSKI
Some molecules, each annotated with its measured IC50.
Respond numerically; units are µM and should not be typed.

Use these answered entries as a reference point.
{"columns": ["MOLECULE", "MEASURED QUANTITY", "RESULT"],
 "data": [
  ["Cc1ccc(C(O)C2OC2c2ccc(-c3ccccc3)cc2)cc1 (racemic)", "IC50", 0.09],
  ["COC(c1ccccc1)C1OC1c1ccccc1 (racemic)", "IC50", 103],
  ["[O-][S+](c1ccccc1)C1OC1c1ccc(-c2ccccc2)cc1 (racemic)", "IC50", 73],
  ["OC[C@@H]1O[C@H]1c1ccccc1", "IC50", 2400]
]}

Then there is this molecule:
Prompt: IC50 of `OC[C@H]1O[C@@H]1c1ccccc1` on recombinant mouse sEH (MsEH) (Mus musculus)?
Completion: 1100

###

Target: Human sEH (HsEH) (Homo sapiens, UniProt P34913)
Sequence (P34913 1-555): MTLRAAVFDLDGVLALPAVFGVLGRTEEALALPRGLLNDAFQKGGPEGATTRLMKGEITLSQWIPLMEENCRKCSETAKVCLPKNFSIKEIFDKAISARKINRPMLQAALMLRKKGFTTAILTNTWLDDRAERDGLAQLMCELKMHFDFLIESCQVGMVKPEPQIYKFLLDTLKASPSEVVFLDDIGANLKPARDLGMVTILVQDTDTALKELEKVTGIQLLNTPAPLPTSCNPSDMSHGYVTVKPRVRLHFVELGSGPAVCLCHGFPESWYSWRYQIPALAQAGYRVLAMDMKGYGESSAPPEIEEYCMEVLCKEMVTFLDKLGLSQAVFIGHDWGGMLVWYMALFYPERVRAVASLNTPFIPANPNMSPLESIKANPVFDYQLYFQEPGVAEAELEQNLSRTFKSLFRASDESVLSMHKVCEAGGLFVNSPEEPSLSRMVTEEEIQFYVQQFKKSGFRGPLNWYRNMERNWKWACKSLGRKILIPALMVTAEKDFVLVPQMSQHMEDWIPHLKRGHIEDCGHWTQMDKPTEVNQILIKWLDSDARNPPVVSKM
Test: Inhibition of recombinant human sEH (HsEH)
Assay type: biochemical
Settings: Table 1; HsEH 0.26 μM
Define the label as rule met when IC50 is strictly less than 300 nM and as rule not met in all remaining cases.

Example results:
{"columns": ["MOLECULE", "CLASS ASSIGNMENT"],
 "data": [
  ["C[C@H](NC(=O)NC1CCCCC1)c1ccccc1 [compound 544]", "rule met"],
  ["CC(C)(C)c1ccc(NC(=O)NC2CCCCC2)cc1 [compound 75]", "rule met"],
  ["O=C(Nc1cccc2ccccc12)NC1CCCCC1 [compound 59]", "rule not met"]
]}

Prompt: Dear reviewer, please state whether O=C(NCCCCc1ccccc1)NC1CCCCC1 [compound 105] has IC50 strictly beneath 300 nM.
Completion: rule not met

Prompt: Dear reviewer, please state whether O=C(NC1CCCCC1)NC1CCCC1 [compound 23] has IC50 strictly beneath 300 nM.
Completion: rule not met

###

Target: Human sEH (HsEH) (Homo sapiens, UniProt P34913)
Sequence (P34913 1-555): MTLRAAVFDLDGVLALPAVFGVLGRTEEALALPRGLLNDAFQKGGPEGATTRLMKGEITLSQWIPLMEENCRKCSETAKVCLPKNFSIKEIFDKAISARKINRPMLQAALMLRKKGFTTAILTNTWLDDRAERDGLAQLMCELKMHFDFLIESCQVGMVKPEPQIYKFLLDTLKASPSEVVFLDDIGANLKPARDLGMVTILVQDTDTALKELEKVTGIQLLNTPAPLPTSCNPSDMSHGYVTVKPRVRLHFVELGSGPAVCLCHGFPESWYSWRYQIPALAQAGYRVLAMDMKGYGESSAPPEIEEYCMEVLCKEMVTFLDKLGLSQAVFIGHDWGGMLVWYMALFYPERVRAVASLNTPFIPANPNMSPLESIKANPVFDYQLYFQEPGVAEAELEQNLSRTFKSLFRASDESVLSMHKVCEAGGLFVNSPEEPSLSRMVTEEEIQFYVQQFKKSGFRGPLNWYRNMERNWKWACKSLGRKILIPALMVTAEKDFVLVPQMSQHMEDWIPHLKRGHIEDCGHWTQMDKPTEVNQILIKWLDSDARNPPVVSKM
Assay: Inhibition of recombinant human sEH (HsEH)
Format: biochemical
Conditions: Table 1; HsEH 0.26 μM
Some compounds, each annotated with its measured IC50.
Respond numerically; units are nM and should not be typed.

Use these answered entries as a reference point.
{"columns": ["SUBSTANCE SMILES", "IC50, nM"],
 "data": [
  ["CCNC(=O)OC1CCCCC1", 2880],
  ["O=C(Nc1ccc(Cl)cc1)Nc1ccc(Cl)c(Cl)c1", 120],
  ["CCCCCCCCCCNC(=O)Nc1cccc(Cl)c1", 300],
  ["C[C@@H](NC(=O)NC1CCCCC1)c1ccccc1", 3700],
  ["O=C(NCCCc1ccccc1)Nc1ccccc1", 550]
]}

Prompt: IC50 of `O=C(Nc1ccc(OC(F)(F)F)cc1)NC1CCCCC1` on Human sEH (HsEH) (Homo sapiens, UniProt P34913)?
Completion: 100

Prompt: IC50 of `O=C(NCCc1cnc[nH]1)NC1CCCCC1` on Human sEH (HsEH) (Homo sapiens, UniProt P34913)?
Completion: 550

Prompt: IC50 of `O=C(NCC1CCCCC1)NC1CCCCC1` on Human sEH (HsEH) (Homo sapiens, UniProt P34913)?
Completion: 160

Prompt: IC50 of `CC(C)[C@@H]1CC[C@@H](C)C[C@H]1OC(=O)NC1CCCCC1` on Human sEH (HsEH) (Homo sapiens, UniProt P34913)?
Completion: 1050

Prompt: IC50 of `O=C(NC1CCCCCCCCCCC1)NC12CC3CC(CC(C3)C1)C2` on Human sEH (HsEH) (Homo sapiens, UniProt P34913)?
Completion: 100

Prompt: IC50 of `CCCCCCCCCCNC(=O)NC1CCCCC1` on Human sEH (HsEH) (Homo sapiens, UniProt P34913)?
Completion: 100
